# Tested on: Wolbachia pipientis
# TEST SUMMARY: Anti-Wolbachia Cell-Based Screen
# Assay type: functional
# Set-up: scale not given: in the data most compounds retested in dose-response had high values
# CONDITION PARAMETERS: 5 µM
About 13,000 (27%) of roughly 48,000 compounds showed an effect of 50% or more. Some of the results follow.
ASSAY ENDPOINT: Percent Effect (%)
All answers are understood in %, so give the number only.

# COMPOUND, NUMBER
data = [
    ("O=C(CC1CCc2ccccc21)NCCSc1cnn[nH]1 (stereo unspecified)", -1.678),
]

Record CCCc1nc(C(=O)NCCN2CCC(c3ccccc3C)C2)cs1 (stereo unspecified) . Reported Percent Effect: -11.15

The compound listed as "Cc1cc(C(=O)NCCN2CCN(S(C)(=O)=O)CC2)no1.Cl" has a reported Percent Effect of 11.14

The compound listed as Cc1csc(CNC(=O)NC2CCCN(S(C)(=O)=O)C2)n1 (stereo unspecified) shows Percent Effect equal to -1.577

Input "CCc1c(C)nn(CCNC(=O)c2csc(C)n2)c1C" . Output Percent Effect: -30.9

// "Cc1nc(C(=O)NCCS(=O)(=O)N2CCCC2)cs1" : Percent Effect value = 99.98
